Just for reference, paper PMC6155776 is where these values come from.

Please respond with reported MIC for every item in the list.
Test system: M. tbc PRAHA 1
methodSummary: microbe, parasite or virus in culture
Type: cell-based
experimentalConditions: Mycobacterium tuberculosis, PRAHA1, 336 h, read-out: Minimum inhibitory concentrations M. tbc PRAHA 1
Numbers only; they are read as µM.

Query: So what does the record say about MIC for Cc1ccc(CNc2nccnc2C(N)=O)cc1 ?
Result: 250

Query: So what does the record say about MIC for NNC(=O)c1ccncc1 [INH, isoniazid, reference compound] ?
Result: 15.6

Query: So what does the record say about MIC for NC(=O)c1nccnc1NCc1ccc(N)cc1 ?
Result: 62.5

====

Tested on: M. tbc PRAHA 4
methodSummary: microbe, parasite or virus in culture
Format: cell-based
experimentalConditions: Mycobacterium tuberculosis, PRAHA4, 504 h, read-out: Minimum inhibitory concentrations M. tbc PRAHA 4
Please respond with reported MIC for every item in the list.
Numbers only; they are read as µM.

Query: So what does the record say about MIC for NC(=O)c1nccnc1NCc1ccc(N)cc1 [Compound 9] ?
Result: 62.5

Query: So what does the record say about MIC for Cc1ccc(CNc2nccnc2C(N)=O)cc1 [Compound 8] ?
Result: 250

Query: So what does the record say about MIC for NNC(=O)c1ccncc1 [INH, isoniazid, reference compound] ?
Result: 31.2

====

System: M. tbc 234/2005
methodSummary: microbe, parasite or virus in culture
Format: cell-based
experimentalConditions: Mycobacterium tuberculosis, 234/2005, 336 h, read-out: Minimum inhibitory concentrations M. tbc 234/2005
readoutKind: MIC (µM)
Numbers only; they are read as µM.

Query: So what does the record say about MIC for NC(=O)c1nccnc1NCc1ccc(N)cc1 ?
Result: 62.5

Query: So what does the record say about MIC for Cc1ccc(CNc2nccnc2C(N)=O)cc1 ?
Result: 250

Query: So what does the record say about MIC for NNC(=O)c1ccncc1 [INH, isoniazid, reference compound] ?
Result: 15.6

====

Please respond with reported MIC for every item in the list.
System: M. tbc PRAHA 131
methodSummary: microbe, parasite or virus in culture
Format: cell-based
experimentalConditions: Mycobacterium tuberculosis, PRAHA131, 504 h, read-out: Minimum inhibitory concentrations M. tbc PRAHA 131

Query: So what does the record say about MIC for NNC(=O)c1ccncc1 [INH, isoniazid, reference compound] ?
Result: 31.2 µM

Query: So what does the record say about MIC for NC(=O)c1nccnc1NCc1ccc(N)cc1 ?
Result: 125 µM

Query: So what does the record say about MIC for Cc1ccc(CNc2nccnc2C(N)=O)cc1 ?
Result: 250 µM

Query: So what does the record say about MIC for CO[C@H]1/C=C/O[C@@]2(C)Oc3c(C)c(O)c4c(O)c(c(/C=N/N5CCN(C)CC5)c(O)c4c3C2=O)NC(=O)/C(C)=C\C=C\[C@H](C)[C@H](O)[C@@H](C)[C@@H](O)[C@@H](C)[C@H](OC(C)=O)[C@@H]1C [RFM, rifampicin, reference compound] ?
Result: > 15.6 µM
